tested on: rat aorta-derived A7R5 vascular smooth muscle cells; type: cell-based; conditions: agonist alone, A7R5 cells, 4 hours at 37° C.; listed as PGF2-α; read-out: IC50 of dose-dependent decrease in cell area
pIC50: −log10 of the molar value.

{"columns": ["compound", "pIC50"],
 "data": [
  ["CCCCC[C@H](O)/C=C/[C@@H]1[C@@H](C/C=C\\CCCC(=O)O)[C@@H](O)C[C@H]1O [PGF2α, reference compound]", 9.25]
]}
